Sourced from PubChem BioAssay AID1963321

# Tested target: cAMP-dependent protein kinase catalytic subunit alpha (Homo sapiens)
# Test details: Protein Kinase A (PKA-HiBiT) enzymatic inhibition screen - Functional assay
# Reported conditions: luminescence; series mostly up to 57.5 µM
Results filed as inconclusive are left out. Active and inactive are the calls of the source. The call rests on the fitted dose curve.
Possible outcomes: Y for active, N for inactive

                            smiles_notation  class_assignment
0  Cc1[nH]nc2ccc(-c3cncc(OC[C@@H](N)Cc4c[nH]c5ccccc45)c3)cc12                 Y
1        C/C(O)=C(\C#N)C(=O)Nc1cc(Br)ccc1Br                 N
2  CCNC(=O)C[C@@H]1N=C(c2ccc(Cl)cc2)c2cc(OC)ccc2-n2c(C)nnc21                 N
3  N#Cc1cn([C@@H]2O[C@H](CO)[C@H](O)[C@@H]2O)c2ncnc(N)c12                 N
